morphology score reference
test system: Vero E6 infected with SARS-CoV-2; assay: morphology score (similarity to uninfected cells); higher = more like uninfected cells; conditions: 24 h

# example entries with known answers
[
  {
    "compound": "C=C(C)CN1CC[C@]23c4c5ccc(O)c4O[C@H]2c2[nH]c4ccccc4c2C[C@@]3(O)C1C5 (10 µM)",
    "morphology score": 0.0617
  },
  {
    "compound": "N#C[C@H](O[C@@H]1O[C@H](CO[C@@H]2O[C@H](CO)[C@@H](O)[C@H](O)[C@H]2O)[C@@H](O)[C@H](O)[C@H]1O)c1ccccc1 [amygdalin] (10 µM)",
    "morphology score": 0.155
  },
  {
    "compound": "C=CCNC1=C2C[C@@H](C)C[C@H](OC)[C@H](O)[C@@H](C)/C=C(\\C)[C@H](OC(N)=O)[C@@H](OC)/C=C\\C=C(/C)C(=O)NC(=CC1=O)C2=O [tanespimycin] (10 µM)",
    "morphology score": -0.0472
  },
  {
    "compound": "N#Cc1ccc2[nH]c(O)c(-c3ccc(CN4CCOCC4)cn3)c2c1 (10 µM)",
    "morphology score": -0.238
  },
  {
    "compound": "Cc1sc(N)c(C(=O)c2cccc(C(F)(F)F)c2)c1C (10 µM)",
    "morphology score": -0.0662
  },
  {
    "compound": "CC(C)n1nc(-c2ccc3oc(N)nc3c2)c2c(N)ncnc21 (0.833333 µM)",
    "morphology score": -0.0142
  }
]

From here, focus on the item given below.
Known value: Vero E6 infected with SARS-CoV-2 morphology score of the compound Cc1nnc(-c2ccc3occ(-c4ccc([S+](C)[O-])cc4)c3c2)o1 (stereo not drawn) (10 µM) equals -0.00242

====

system: Vero E6 infected with SARS-CoV-2; test: inhibition of SARS-CoV-2 cytopathic effect; higher = more antiviral protection, active = above 15; details: 10000 nM; 48 h
recorded metric: inhibition of SARS-CoV-2 cytopathic effect (%)
Respond numerically; units are % and should not be typed.

get_value(item= "CC[C@@H]1Cn2c(c3nc(-c4ccccc4)nc-3n(C)c2=O)N1" , readout=inhibition of SARS-CoV-2 cytopathic effect) returns 1.21

get_value(item= "COc1ccn2ncc(-c3nc4[nH]nc(NC(=O)c5ccc(F)cc5)c4cc3F)c2c1" , readout=inhibition of SARS-CoV-2 cytopathic effect) returns -6.79

get_value(item= "COc1ccc(C2=N[C@@H](c3ccc(Cl)cc3)[C@@H](c3ccc(Cl)cc3)N2C(=O)N2CCNC(=O)C2)c(OC(C)C)c1" , readout=inhibition of SARS-CoV-2 cytopathic effect) returns 3.38

get_value(item= C[C@@H](O[C@H]1OCCN(Cc2n[nH]c(=O)[nH]2)[C@H]1c1ccc(F)cc1)c1cc(C(F)(F)F)cc(C(F)(F)F)c1 [aprepitant] , readout=inhibition of SARS-CoV-2 cytopathic effect) returns -6.5

get_value(item= "C1COC(NC(C2CC2)C2CC2)=N1" , readout=inhibition of SARS-CoV-2 cytopathic effect) returns -6.59

====

inhibition of SARS-CoV-2 cytopathic effect reference
test system: Vero E6 infected with SARS-CoV-2; assay: inhibition of SARS-CoV-2 cytopathic effect; higher = more antiviral protection, active = above 15; conditions: 833.33 nM; 48 h
Respond numerically; units are % and should not be typed.

# example entries with known answers
[
  {
    "compound": "O=C(Nc1cccnn1)N1CCC(=Cc2cccc(Oc3ccc(C(F)(F)F)cn3)c2)CC1",
    "value reported": -0.98
  },
  {
    "compound": "NS(=O)(=O)c1cc2c(cc1C(F)(F)F)NCNS2(=O)=O [hydroflumethiazide]",
    "value reported": 0.37
  },
  {
    "compound": "C[C@@H]1CN(c2c(F)c(F)c3c(=O)c(C(=O)O)cn(C4CC4)c3c2F)C[C@H](C)N1",
    "value reported": -4.29
  },
  {
    "compound": "Nc1ccn([C@@H]2CS[C@H](CO)O2)c(=O)n1",
    "value reported": -0.22
  },
  {
    "compound": "CC(C)Oc1cccc(CC(=O)N2CCC[C@](CC[N+]34CCC(c5ccccc5)(CC3)CC4)(c3ccc(Cl)c(Cl)c3)C2)c1",
    "value reported": 4.46
  },
  {
    "compound": "CC(=O)Nc1ccc(OC[C@](C)(O)C(=O)Nc2ccc([N+](=O)[O-])c(C(F)(F)F)c2)cc1",
    "value reported": -1.89
  },
  {
    "compound": "CCCC[C@@H](C=O)NC(=O)[C@H](CC(C)C)NC(=O)OCc1ccccc1",
    "value reported": 14.7
  },
  {
    "compound": "Cc1c[nH]c(=O)n(CCCN2CCN(c3ccccc3OCC(F)(F)F)CC2)c1=O",
    "value reported": -1.23
  },
  {
    "compound": "Cc1ccc(Oc2ccccc2-c2csc(N=C3NCCCN3)n2)c(C)c1",
    "value reported": -1.03
  },
  {
    "compound": "CC(C)(CC(=O)N1CCCC1)NCC(=O)N1C[C@@H](F)C[C@H]1C#N",
    "value reported": -1.3
  }
]

get_value(item= CC(Cc1ccc(O)cc1)NCC(O)c1cc(O)cc(O)c1 (configuration not stated) , readout=inhibition of SARS-CoV-2 cytopathic effect) returns 2.52

get_value(item= "CC(C)OC(=O)C1=CN(C(=O)c2ccc(F)c(F)c2)CC(C)(C)c2c1[nH]c1ccccc21" , readout=inhibition of SARS-CoV-2 cytopathic effect) returns -4.11
